- target.or.test.system: human MC4R receptor (human, UniProt P32245 1-332)
- Sequence (P32245 whole entry): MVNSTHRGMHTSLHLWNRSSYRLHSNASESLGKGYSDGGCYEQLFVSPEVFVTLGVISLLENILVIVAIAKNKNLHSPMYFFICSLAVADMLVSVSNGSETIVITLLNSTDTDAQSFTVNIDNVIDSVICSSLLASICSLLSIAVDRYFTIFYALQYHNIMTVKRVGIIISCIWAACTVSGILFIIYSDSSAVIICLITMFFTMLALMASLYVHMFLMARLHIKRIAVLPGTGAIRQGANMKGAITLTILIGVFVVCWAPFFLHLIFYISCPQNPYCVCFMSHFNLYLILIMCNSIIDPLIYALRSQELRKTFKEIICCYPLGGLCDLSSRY
- protocol.summary: cell-based or functional assay
Starred links: 1 amine or outer side, 2 acyl side, 3 side chain; linkers in the order of their positions; H or OH if unused. Positions of bridges follow the written chain, without caps; N, C: chain ends. Non-standard residues stand in square brackets, D forms with d. Primed or numbered codes have the meaning given here. dTyr(4-OMe)″ = O-methyl-D-tyrosine, COc1ccc(C[C@@H](N[*:1])C(=O)[*:2])cc1; d(αMeF) = C[C@@](N)(Cc1ccccc1)C(=O)O; 4Pal = N[C@@H](Cc1ccncc1)C(=O)O; Cit = NC(=O)NCCC[C@H](N)C(=O)O; Nle = CCCC[C@H](N)C(=O)O; Aib = CC(C)(N)C(=O)O
measurement.label: MC4R selectivity vs MC1R
Just the number, please, no unit attached.

Input: Tell me the measured MC4R selectivity vs MC1R of Ac-RCAR[dF]RWC-NH2 (disulfide 2-8; SMILES CC(=O)N[C@@H](CCCNC(=N)N)C(=O)N[C@H]1CSSC[C@@H](C(N)=O)NC(=O)[C@H](Cc2c[nH]c3ccccc23)NC(=O)[C@H](CCCNC(=N)N)NC(=O)[C@@H](Cc2ccccc2)NC(=O)[C@H](CCCNC(=N)N)NC(=O)[C@H](C)NC1=O) [CTX-1267] , please.
Output: 0.5

Input: Now this one: Ac-RC[Aib]R[dTyr(4-OMe)″]R[dW]C-NH2 (disulfide 2-8) [CTX-1297]
Output: 0.52

Input: Now this one: Ac-RC[dA]R[d(αMeF)]RWC-NH2 (disulfide 2-8; SMILES CC(=O)N[C@@H](CCCNC(=N)N)C(=O)N[C@H]1CSSC[C@@H](C(N)=O)NC(=O)[C@H](Cc2c[nH]c3ccccc23)NC(=O)[C@H](CCCNC(=N)N)NC(=O)[C@@](C)(Cc2ccccc2)NC(=O)[C@H](CCCNC(=N)N)NC(=O)[C@@H](C)NC1=O) [CTX-1278]
Output: 1.13

Input: Now this one: Ac-CGR[dF]RFC-NH2 (disulfide 1-7; SMILES CC(=O)N[C@H]1CSSC[C@@H](C(N)=O)NC(=O)[C@H](Cc2ccccc2)NC(=O)[C@H](CCCNC(=N)N)NC(=O)[C@@H](Cc2ccccc2)NC(=O)[C@H](CCCNC(=N)N)NC(=O)CNC1=O) [CTX-1638]
Output: 1.04

Input: Now this one: Ac-RCAR[dF]R[dW]C-NH2 (disulfide 2-8) [CTX-1268]
Output: 6.59

Input: Now this one: Ac-C[dA]R[dF]RWC-NH2 (disulfide 1-7; SMILES CC(=O)N[C@H]1CSSC[C@@H](C(N)=O)NC(=O)[C@H](Cc2c[nH]c3ccccc23)NC(=O)[C@H](CCCNC(=N)N)NC(=O)[C@@H](Cc2ccccc2)NC(=O)[C@H](CCCNC(=N)N)NC(=O)[C@@H](C)NC1=O) [CTX-1627]
Output: 9.33

Input: Now this one: Ac-R[Nle]C[4Pal][dF]RWC-NH2 (disulfide 3-8; SMILES CCCC[C@H](NC(=O)[C@H](CCCNC(=N)N)NC(C)=O)C(=O)N[C@H]1CSSC[C@@H](C(N)=O)NC(=O)[C@H](Cc2c[nH]c3ccccc23)NC(=O)[C@H](CCCNC(=N)N)NC(=O)[C@@H](Cc2ccccc2)NC(=O)[C@H](Cc2ccncc2)NC1=O) [CTX-1621]
Output: 82

Input: Now this one: Ac-R[Nle]CR[dF]RFC-NH2 (disulfide 3-8; SMILES CCCC[C@H](NC(=O)[C@H](CCCNC(=N)N)NC(C)=O)C(=O)N[C@H]1CSSC[C@@H](C(N)=O)NC(=O)[C@H](Cc2ccccc2)NC(=O)[C@H](CCCNC(=N)N)NC(=O)[C@@H](Cc2ccccc2)NC(=O)[C@H](CCCNC(=N)N)NC1=O) [CTX-1622]
Output: 0.39

Input: Now this one: Ac-RC[dA]R[dF]R[dF]C-NH2 (disulfide 2-8; SMILES CC(=O)N[C@@H](CCCNC(=N)N)C(=O)N[C@H]1CSSC[C@@H](C(N)=O)NC(=O)[C@@H](Cc2ccccc2)NC(=O)[C@H](CCCNC(=N)N)NC(=O)[C@@H](Cc2ccccc2)NC(=O)[C@H](CCCNC(=N)N)NC(=O)[C@@H](C)NC1=O) [CTX-1257]
Output: 0.02

Input: Now this one: Ac-CGR[dF]RWC-NH2 (disulfide 1-7; SMILES CC(=O)N[C@H]1CSSC[C@@H](C(N)=O)NC(=O)[C@H](Cc2c[nH]c3ccccc23)NC(=O)[C@H](CCCNC(=N)N)NC(=O)[C@@H](Cc2ccccc2)NC(=O)[C@H](CCCNC(=N)N)NC(=O)CNC1=O) [CTX-1629]
Output: 15

Input: Now this one: Ac-RC[Aib][4Pal][dF]RFC-NH2 (disulfide 2-8; SMILES CC(=O)N[C@@H](CCCNC(=N)N)C(=O)N[C@H]1CSSC[C@@H](C(N)=O)NC(=O)[C@H](Cc2ccccc2)NC(=O)[C@H](CCCNC(=N)N)NC(=O)[C@@H](Cc2ccccc2)NC(=O)[C@H](Cc2ccncc2)NC(=O)C(C)(C)NC1=O) [CTX-1606]
Output: 2.99

Input: Now this one: Ac-RC[dA]R[dF][Cit][dW]C-NH2 (disulfide 2-8) [CTX-1281]
Output: 0.44

Input: Now this one: Ac-R[Nle]C[Cit][dF]RFC-NH2 (disulfide 3-8; SMILES CCCC[C@H](NC(=O)[C@H](CCCNC(=N)N)NC(C)=O)C(=O)N[C@H]1CSSC[C@@H](C(N)=O)NC(=O)[C@H](Cc2ccccc2)NC(=O)[C@H](CCCNC(=N)N)NC(=O)[C@@H](Cc2ccccc2)NC(=O)[C@H](CCCNC(N)=O)NC1=O) [CTX-1626]
Output: 3.05
